Values were extracted from patent US20180030149A1.

System Name: T1, recombinant human ErbB3/Fc fusion protein (human, UniProt P21860 20-643)
T1 construct: Bought (R&D Systems, Cat. No. 348-RB); the NRG1-α1 assay names Cat. No. 4518-RB instead; also called rhErbB3-Fc; rhErbB3/Fc; not shown: Fc portion of the bought fusion protein
Assay Name: SPR Biacore T100, 25 C; antibody captured on anti-mouse IgG, rhErbB3-Fc injected
Recorded Endpoint: Kd (nM)
Answer with a number only, understood to be in nM.

Examples with their reported Kd follow.
>>> measured_value("12A07 (antibody, mouse IgG1, kappa, V domains shown, Murine IgG1/kappa, from hybridoma; also called anti-hErbB3 monoclonal antibody 12A07) VH: QVQLLQPGAELVRPGTSVKLSCKTSGYTFSSYWMHWVKQRPGQGLEWIGMIDPSDVYTNYNPKFKGKATLTVDTSSSTAYMQLSSLTSEDSAVYYCARNYSGDYWGQGTTLTVSS VL: DVLMTQIPLSLPVSLGDQASISCRSSQSIVHSNGNTYLEWYLQKPGQSPKLLIYKVSNRFSGVPDRFSGSGSGTDFTLKISRVEAEDLGVYYCFQGSYVPWTFGGGTKLEIKR")
0.3
>>> measured_value("11G01 (antibody, mouse IgG1, kappa, V domains shown, Murine IgG1/kappa, from hybridoma; also called anti-hErbB3 monoclonal antibody 11G01) VH: QVQLQQSDAELVKPGASVKISCKVSGYTFTDHIIHWMKQRPEQGLEWIGYIYPRDGYIKYNEKFKGKATLTADKSSSTAYMQVNSLTSEDSAVYFCARGYYYAMDYWGQGTSVTVSS VL: DVLMTQTPLSLPVSLGDQASISCRSSQSIVHSIGNTYLEWYLQKPGQSPKLLIYKVSNRFSGVPERFSGSGSGTDFTLKISRVEAEDLGVYYCFQGSHVPFTFGSGTKLEIKR")
0.091

Moving on to another binder below.
Ask: Entry 09D03 (antibody, mouse IgG2b, kappa, V domains shown, Murine IgG2b/kappa, from hybridoma; also called anti-hErbB3 monoclonal antibody 09D03) VH: QVTLKESGPGILRPSQTLSLTCSFSGFSLSTFGLSVGWIRQPSGKGLEWLAHIWWDDDKYYNPALKSRLTISKDTSKNQVFLKIANVDTADTATYYCARIGADALPFDYWGQGTTLTVSS VL: DIVLTQTAPSVPVTPGESVSISCRSSKSLLHSNGNTYLYWFLQRPGQSPQLLIYRMSNLASGVPDRFSGSGSGTAFTLRISRVEAEDVGVYYCMQHLEYPFTFGSGTKLEIKR has what Kd?
Result: 0.08
